- tested target: 20S proteasome ChT-L activity (Homo sapiens)
- Construct: This assay measures the ChT-L protease activity in cultured cells; endogenous in cells; host or cells: MCF-7 and PC-3 cells
- test protocol: Cell-based 20S proteasome ChT-L inhibition assay in PC-3 cells
- measurement context: PC-3 cells, percent inhibition at 25 µM; ChT-L activity, LLVY-R110 substrate; read-out: 20S proteasome inhibition, Inhibition [%] PC-3
recorded endpoint: inhibition at 25 µM (%)
# output: bare number, implied unit %

// returns reported inhibition at 25 µM for input COc1ccc(C=C(CO)[N+](=O)[O-])cc1 86.3

Next molecule up: O=[N+]([O-])C(=Cc1ccccc1)Cc1ccccc1 42.7

Next molecule up: O=[N+]([O-])C(=Cc1ccc(Cl)cc1)Cc1ccccc1 63.9

Next molecule up: O=[N+]([O-])C=Cc1ccccc1 78.6

Next molecule up: O=[N+]([O-])C(=Cc1ccc(Cl)cc1)CO 40.3

Next molecule up: Cc1ccc(C=C(Cc2ccccc2)[N+](=O)[O-])cc1 50.8

Next molecule up: Cc1ccc(C=C(CO)[N+](=O)[O-])cc1 87

Next molecule up: Cc1ccc(C=C[N+](=O)[O-])cc1 80.1

Reference source for all entries: paper PMC6094432
